B1: library; numbered along this chain (parent)
chain: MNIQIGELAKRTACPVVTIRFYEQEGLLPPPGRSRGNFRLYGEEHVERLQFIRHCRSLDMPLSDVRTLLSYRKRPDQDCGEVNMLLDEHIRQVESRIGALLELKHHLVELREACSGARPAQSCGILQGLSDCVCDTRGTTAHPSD

Variants of: B1
ASSAY_PROCEDURE: sfGFP reporter fluorescence (15 h) (µM FITC); higher = higher leak
MEASUREMENT_PARAMETERS: library round: Round 0; ligand: none
OBSERVED_PROPERTY: sfGFP reporter fluorescence

Query block: For `E7D` , what is its reported sfGFP reporter fluorescence?
Result block: 0.0592

Query block: For `C79H` , what is its reported sfGFP reporter fluorescence?
Result block: 0.0592

Query block: For `I125C` , what is its reported sfGFP reporter fluorescence?
Result block: 0.0596

Query block: For `Y41T` , what is its reported sfGFP reporter fluorescence?
Result block: 0.0597

Query block: For `L85T` , what is its reported sfGFP reporter fluorescence?
Result block: 0.0601

Query block: For `D135I` , what is its reported sfGFP reporter fluorescence?
Result block: 0.0614

Query block: For `L85V` , what is its reported sfGFP reporter fluorescence?
Result block: 0.0585

Query block: For `G6S` , what is its reported sfGFP reporter fluorescence?
Result block: 0.0608

Query block: For `H89Y` , what is its reported sfGFP reporter fluorescence?
Result block: 0.0596

Query block: For `V108K` , what is its reported sfGFP reporter fluorescence?
Result block: 0.0607

Query block: For `L62N` , what is its reported sfGFP reporter fluorescence?
Result block: 0.061

Query block: For `G6C` , what is its reported sfGFP reporter fluorescence?
Result block: 0.0601

Query block: For `L62Y` , what is its reported sfGFP reporter fluorescence?
Result block: 0.0599

Query block: For `L85K` , what is its reported sfGFP reporter fluorescence?
Result block: 0.0585
